- Tested on: K4 kissing-loop RNA reporter;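 further: bound reporter read as fluorescence of individual clusters on recovered sequencing chips by microscopy, with normalized cluster intensities fitted with a binding model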
- Assay Overview: apparent KD of K4 kissing-loop reporter; higher = weaker reporter binding
- Run Conditions: Eterna round: R107; input ligand: tryptophan 2.4 mM
Measured Attribute: apparent KD of K4 kissing-loop reporter (nM)

INSERT INTO assay_data (sequence_chain, measured_attribute, reported_value) VALUES
  ('AGGUUUUGAUUAGGAUAUGCACUGACGACGAGAAUAUAGUGAUGUUAUAUACUACGAAUUAGUAGAGUAGAAGGGAUUGAGGUUU [SSFMNB.Y]', 'apparent KD of K4 kissing-loop reporter', 245),
  ('GUUGACAGACUGCAAAACUAGUCAACAGACUAGGAUAUCAGGAAACUGAGAAGGAGUCAAGUUGCAGUGAUGUUGCAAGAAUAAU [KL-SSFMN-A27]', 'apparent KD of K4 kissing-loop reporter', 136),
  ('UAAGAGGACCACUGCGAGAGUCCUCGAAUACGAGGACCGGUACGGCCGCCACUCGAUAAUUUGUAGUGAUGUUGCAAGUAAGAAU [BrourdMod 7 - Jieux - Same State Tryptophan A]', 'apparent KD of K4 kissing-loop reporter', 31.8),
  ('UUUUUAUGCAGUGAUGUUGCUAAUAUAACAGAGGAUAUGCAUUAAUGCAGAAGGCUGAAAUACUAUACUUUAAUAAAUUAAAUUU [JR_SSFMNA_Sub014]', 'apparent KD of K4 kissing-loop reporter', 85),
  ('AGCAAUAUCACGGCCGCCACUGAAUAUUGUUUUUAUAUUUAGAAAUCUUGCCAGUGAUGUUGGUUCAGGACCGGGUGAGUUAAUA [JR_SSTryptoB_Sub005]', 'apparent KD of K4 kissing-loop reporter', 401);

----------
- System: MS2 coat protein
- Assay Overview: apparent KD of MS2 coat protein; designed switch direction (-1 OFF switch, 1 ON switch): 1; higher = weaker reporter binding
- Run Conditions: input ligand: FMN 200 uM
Items are presented alongside their recorded apparent KD of MS2 coat protein.
Measured Attribute: apparent KD of MS2 coat protein

INSERT INTO results (sequence_chain, test_system, measured_attribute, reported_value) VALUES
  ('UUGAAGAAUUAAGGAUAUUGAAUACAUAUGUUUAACAUGAGGAUCACCCAUGUGGGUUGCGGUAUCGAGAAGGUAAAUUAAUAG [Mat - Same State NG 2 - JL mod - D9] (Eterna round: R96, puzzle: Same State NG 2)', 'MS2 coat protein', 'apparent KD of MS2 coat protein', '0.142 µM'),
  ('GCGGAACCUGACAUGAGGAUCACCCAUGUUCCGGAAACGGCACAGGAUAUCUGUCCGAAAAGGUCAGAGAAGGGUGUAAACCGC [Fiskers NG3ss - 97] (Eterna round: R96, puzzle: Same State NG 3)', 'MS2 coat protein', 'apparent KD of MS2 coat protein', '0.029 µM'),
  ('GUAGCAUACCGAGGAUAUUCAUAUAAUAUACAUGAGGAUCACCCAUGUUAUAGGCGAAAGCCUUGGGAGAAGGCGGAAUGCUAC [Xeonanis - 20 Mod62] (Eterna round: R96, puzzle: Same State NG 2)', 'MS2 coat protein', 'apparent KD of MS2 coat protein', '0.00873 µM'),
  ('GCUCGAAUCACAACCAACAUGAGGAUCACCCAUGUGUGUUGGUAGGAUAUCGUUUCUAAGGGAAACGAGAAGGGCCGAACGAGC [SameState NG3 #8] (Eterna round: R96, puzzle: Same State NG 3)', 'MS2 coat protein', 'apparent KD of MS2 coat protein', '0.0189 µM'),
  ('GGUGCAAUAAACGCCUACAUGAGGAUCACCCAUGUAUGUAGGCAGGAUAUCGUUUGCAAAGCAAACGAGAAGGGCUGUAGUACC [Mat - Same State NG 3 - JL Mod - D41] (Eterna round: R96, puzzle: Same State NG 3)', 'MS2 coat protein', 'apparent KD of MS2 coat protein', '0.0515 µM'),
  ('UGAACCUUCACAGGAUAUCAUGCGAAAAUUGCGUGAGAAGGGUGAAUACGGUGUUCAUAGUUGCACAUGAGGAUCACCCAUGUA [SameState NG1 #54] (Eterna round: R96, puzzle: Same State NG 1)', 'MS2 coat protein', 'apparent KD of MS2 coat protein', '0.141 µM'),
  ('AUACUCAUGUAAGGAUAUGCAGCCGAAACGGCUGCAGAAGGUACUAUAAUACAUGAGGAUCACCCAUGUCUCUAUUAUUUAGUU [Mat - Same State NG 1 - JL mod - D98] (Eterna round: R96, puzzle: Same State NG 1)', 'MS2 coat protein', 'apparent KD of MS2 coat protein', '0.0895 µM'),
  ('GGAGCCGGCACUGAGGAUAUUCAUAUUAAAACAUGAGGAUCACCCAUGUAGGCCAGAAGGCCUUGGGAGAAGGCAGGUCGGCCCG [Bibimaor] (Eterna round: R96, puzzle: Same State 2)', 'MS2 coat protein', 'apparent KD of MS2 coat protein', '0.0217 µM'),
  ('CAUCCCUCCACAGGAUAUCGACCGAUAAAACGGCGAGAAGGGUGGCCACAUGAGGAUCACCCAUGUGGAAUUGGAUGAGCUACA [Enlaed] (Eterna round: R96, puzzle: Same State NG 1)', 'MS2 coat protein', 'apparent KD of MS2 coat protein', '0.0787 µM');
